tested.on: human GLP-1 receptor (hGLP1R) (human, UniProt P43220 24-463)
experimental.protocol: cell-based or functional assay
Numbered stars: 1 amine (or outer) side, 2 acyl side, 3 side chain; on linkers, the order of the positions; unused ones are H or OH. Square brackets hold non-standard residues; d marks the D form. Side chains are listed from the residue outwards. Ends that are not written are not given here. * marks the point of attachment. C20 diacid = O=C(O)CCCCCCCCCCCCCCCCCCC(=O)*; γGlu = O=C(O)[C@H](CCC(=O)[*:2])N[*:1]; AEEA = NCCOCCOCC(=O)O; Aib = CC(C)(N)C(=O)O
Form field: pEC50 hGLPR1 (one value per entry).
measurement.name: pEC50 hGLPR1

[[record]]
binder = "H[Aib]EGTFTSDVSYLK([AEEA-AEEA-γGlu-C20 diacid])ELAAAQRFLEHLV-NH2 [SEQ ID NO: 86]"
measurement_name = "pEC50 hGLPR1"
value = "9.7 -log M"

[[record]]
binder = "H[Aib]EGTFTSD[Aib]SYLK([AEEA-AEEA-γGlu-C20 diacid])EEA[Aib]LQRFLEHLV-NH2 (also: K14 lipid also given as C18DA[γE][OEG][OEG]-) [SEQ ID NO: 103]"
measurement_name = "pEC50 hGLPR1"
value = "11.1 -log M"

[[record]]
binder = "H[Aib]EGTFTSDVSTLK([AEEA-AEEA-γGlu-C20 diacid])E[Aib]AAAQRFLEHLV-NH2 [SEQ ID NO: 43]"
measurement_name = "pEC50 hGLPR1"
value = "11 -log M"

[[record]]
binder = "H[Aib]EGTFTSDVSRLK([AEEA-AEEA-γGlu-C20 diacid])E[Aib]AASQRFLEHLV-NH2 [SEQ ID NO: 59]"
measurement_name = "pEC50 hGLPR1"
value = "10.5 -log M"

[[record]]
binder = "H[Aib]EGTFTSDVSFLK([AEEA-AEEA-γGlu-C20 diacid])EEAAEQRFLEHLV-NH2 [SEQ ID NO: 56]"
measurement_name = "pEC50 hGLPR1"
value = "10.4 -log M"

[[record]]
binder = "H[Aib]EGTFTSDVSYLKEEA[Aib]NQRFLEHLV-NH2 (not fully specified (residue 14)) [SEQ ID NO: 131]"
measurement_name = "pEC50 hGLPR1"
value = "11.3 -log M"

[[record]]
binder = "H[Aib]EGTFTSDVSTLK([AEEA-AEEA-γGlu-C20 diacid])ETAAEQRFLEHLV-NH2 [SEQ ID NO: 42]"
measurement_name = "pEC50 hGLPR1"
value = "10.8 -log M"

[[record]]
binder = "H[Aib]EGTFTSDVSRLK([AEEA-AEEA-γGlu-C20 diacid])EEAAEQRFLEHLV-NH2 [SEQ ID NO: 22]"
measurement_name = "pEC50 hGLPR1"
value = "10.7 -log M"

[[record]]
binder = "H[Aib]EGTFTSDVSILK([AEEA-AEEA-γGlu-C20 diacid])EEA[Aib]LQRFLEHLV-NH2 [SEQ ID NO: 172]"
measurement_name = "pEC50 hGLPR1"
value = "10.8 -log M"

[[record]]
binder = "H[Aib]EGTFTSDVSVLKEEA[Aib]LQRFLEHLV-NH2 (not fully specified (residue 14)) [SEQ ID NO: 138]"
measurement_name = "pEC50 hGLPR1"
value = "10.9 -log M"

